Just for reference, patent US20050112126A1 is where these values come from.

As shown below, each of these binders has a reported IC50 (mut)/IC50 (wt) value.
Biological target: T1, VEGF (human, UniProt P15692-4 27-191, limits assumed)
T1 construct: Biotinylated in the KDR-IgG ELISA, amine-coupled to the chip in BIAcore; also called biotinylated VEGF; vascular endothelial growth factor
T1 sequence (P15692 other isoform, or with tags, fused parts or gaps limits assumed): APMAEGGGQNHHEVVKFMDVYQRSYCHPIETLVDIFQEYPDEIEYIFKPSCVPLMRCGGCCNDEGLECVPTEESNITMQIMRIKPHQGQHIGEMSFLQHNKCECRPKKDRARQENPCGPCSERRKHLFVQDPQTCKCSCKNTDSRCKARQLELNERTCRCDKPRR
Test: competitive phage-ELISA, relative to pY0192
Reply with just the number (in ratio).

pY0192 VH T59A (Fab, V domains shown, Ala-scan variant of pY0192; Fab on phage) VH: EVQLVESGGGLVQPGGSLRLSCAASGYTFTNYGINWVRQAPGKGLEWVGWINTYTGEPAYAADFKRRFTFSLDTSKSTAYLQMNSLRAEDTAVYYCAKYPHYYGSSHWYFDVWGQGTL VL: DIQLTQSPSSLSASVGDRVTITCRANEQLSNYLNWYQQKPGKAPKVLIYFTSSLHSGVPSRFSGSGSGTDFTLTISSLQPEDFATYYCQQYSTVPWTFGQGTKVEIKR
3

QUERY: Would you mind telling me what IC50 (mut)/IC50 (wt) value was observed for pY0192 VL N26A (Fab, V domains shown, Ala-scan variant of pY0192; Fab on phage) VH: EVQLVESGGGLVQPGGSLRLSCAASGYTFTNYGINWVRQAPGKGLEWVGWINTYTGEPTYAADFKRRFTFSLDTSKSTAYLQMNSLRAEDTAVYYCAKYPHYYGSSHWYFDVWGQGTL VL: DIQLTQSPSSLSASVGDRVTITCRAAEQLSNYLNWYQQKPGKAPKVLIYFTSSLHSGVPSRFSGSGSGTDFTLTISSLQPEDFATYYCQQYSTVPWTFGQGTKVEIKR ?
RESULT: 1

QUERY: Would you mind telling me what IC50 (mut)/IC50 (wt) value was observed for pY0192 VH P100A (Fab, V domains shown, Ala-scan variant of pY0192; Fab on phage; also called P1OOA) VH: EVQLVESGGGLVQPGGSLRLSCAASGYTFTNYGINWVRQAPGKGLEWVGWINTYTGEPTYAADFKRRFTFSLDTSKSTAYLQMNSLRAEDTAVYYCAKYAHYYGSSHWYFDVWGQGTL VL: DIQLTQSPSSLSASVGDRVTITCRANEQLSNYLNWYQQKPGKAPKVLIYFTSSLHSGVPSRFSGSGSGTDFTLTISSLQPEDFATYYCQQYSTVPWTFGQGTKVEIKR ?
RESULT: 38
